- assay-method-text: Half life in rat liver microsomes at 0.1 uM up to 60 mins by LC-MS/MS analysis
- Format: ADME, microsome
readout-type: half-life at 0.1 µM (min)
Hi! Could you send only the number? It should be in min, unit omitted.

INSERT INTO assay_data (compound, quantitative_readout) VALUES
  ('Cc1cccc2c3c(ccc12)C1=C(C(=O)C3=O)C(O)C(C)(C)O1 (centres undefined)', 20.2),
  ('CCN(CC)CCCn1c2c(c3ccccc3c1=O)C(=O)C(=O)c1cc(C)oc1-2', 75.8),
  ('Cc1cccc2c3c(ccc12)-c1occ(CN(C)C)c1C(=O)C3=O', 22.7);

Kindly review the next compound as well.
Prompt line: Identify the reported half-life at 0.1 µM for the following entry. Cc1coc2c1C(=O)C(=O)c1c-2ccc2c(C)cccc12 [TANSHINONE I]
Response line: 2.51

* * *

- Tested on: BEL-7404 tumor cell line
- assay-method-text: Antiproliferative activity against human Bel7404 cells after 72 hrs by sulforhodamine B assay
- Type: functional, cell-based
- condition-description: BEL-7404, 72 h
readout-type: IC50 (µM)
Hi! Could you send only the number? It should be in µM, unit omitted.

Prompt line: Identify the reported IC50 for the following entry. CCN(CC)CCCn1c2c(c3ccccc3c1=O)C(=O)C(=O)c1cc(C)oc1-2
Response line: 0.36

* * *

In this section we review reported pIC50 values for a set of compounds.
- assay-method-text: Antiproliferative activity against human KB/VCR cells after 72 hrs by sulforhodamine B assay
- Assay type: functional, cell-based
The quantity pIC50 is defined as the negative base-10 logarithm of the molar concentration.

INSERT INTO assay_data (compound, readout_type, quantitative_readout) VALUES
  ('Cc1coc2c1C(=O)C(=O)c1c-2ccc2c(C)cccc12 [TANSHINONE I]', 'pIC50', 5.36),
  ('Cc1cccc2c3c(ccc12)-c1occ(CN2CCC(CO)C2)c1C(=O)C3=O (stereo not given)', 'pIC50', 6.04),
  ('Cc1cccc2c3c(ccc12)-c1occ(CN2CCCC2)c1C(=O)C3=O', 'pIC50', 5.75),
  ('Cc1cccc2c3c(ccc12)-c1occ(CN2CCC(O)CC2)c1C(=O)C3=O', 'pIC50', 5.95),
  ('Cc1cc2c(o1)-c1c(c3ccccc3c(=O)n1CCCN1CCN(C)CC1)C(=O)C2=O', 'pIC50', 5.45),
  ('Cc1cc2c(o1)-c1c(c3ccccc3c(=O)n1CCCN1CCOCC1)C(=O)C2=O', 'pIC50', 5.81),
  ('Cc1cccc2c3c(ccc12)-c1occ(CN2CCC(N(C)C)CC2)c1C(=O)C3=O', 'pIC50', 5.42);

Kindly review the next compound as well.
Prompt line: Identify the reported pIC50 for the following entry. Cc1cc2c(o1)-c1c(c3ccccc3c(=O)n1CCCn1ccnc1)C(=O)C2=O
Response line: 5.00

* * *

In this section we review reported pIC50 values for a set of molecules.
- assay-method-text: Antiproliferative activity against human KB/VCR cells after 72 hrs by sulforhodamine B assay
- Assay type: functional, cell-based
pIC50: −log10 of the molar value.

Example molecules with recorded pIC50:
INSERT INTO results (molecule, readout_type, result) VALUES
  ('COc1ccc(OC)c(NC2C3=C(OC2(C)C)c2ccc4c(C)cccc4c2C(=O)C3=O)c1 (stereo not drawn)', 'pIC50', '< 4.70'),
  ('Cc1cc2c(o1)-c1nc(OCCO)c3ccccc3c1C(=O)C2=O', 'pIC50', '< 4.70');

Kindly review the next molecule as well.
Prompt line: Identify the reported pIC50 for the following entry. Cc1cccc2c3c(ccc12)C1=C(C(=O)C3=O)C(Nc2ccc(F)c([N+](=O)[O-])c2)C(C)(C)O1 (stereo not drawn)
Response line: < 4.70
